Give measured EC50 for each item. Keep answers brief.
- target.desc: glutathione-S-transferase (GST) tagged LXRbeta LBD (ligand binding domain) (Homo sapiens)
- Construct: purchased Invitrogen pv4658.pps
- Sequence (P55055 222-460 limits assumed): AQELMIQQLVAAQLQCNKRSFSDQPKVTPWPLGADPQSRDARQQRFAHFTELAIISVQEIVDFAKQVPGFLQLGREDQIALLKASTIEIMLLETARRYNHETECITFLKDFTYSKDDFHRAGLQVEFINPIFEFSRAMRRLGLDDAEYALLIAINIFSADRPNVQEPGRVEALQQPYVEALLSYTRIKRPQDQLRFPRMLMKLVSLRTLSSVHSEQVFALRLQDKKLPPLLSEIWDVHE
- measurement.notes: LanthaScreen TR-FRET Liver X Receptor Coactivator Assay, co-activator recruitment to LXRbeta LBD
- Assay type: biochemical
- settings: LXR beta IP (nM), potency (Inflection Point, IP), co-activator recruitment to LXRbeta LBD, in relation to T0901317
In your response, put the unit directly after the numeric value.

Which EC50 is reported for this compound? CN(C)C(=O)c1ccc(N2CCC(CC3CCN(C(=O)C(O)(c4ccccc4)C4CC4)CC3)CC2)nc1Cl (stereo not shown)
48 nM

For the compound CN(C)C(=O)c1ccc(N2CCC(CC3CCN(C(=O)[C@](O)(c4ccccc4)C4CC4)CC3)CC2)cc1Cl , what EC50 is on record?
21 nM

// query EC50 value for entry COc1cccc([C@@](O)(C(=O)N2CCC(C(=O)N3CCN(c4ccc(C(=O)N(C)C)c(Cl)c4)CC3)CC2)C(F)(F)F)c1
12400 nM

Which measured EC50 value corresponds to CN(C)C(=O)c1ccc(N2CCC(CC3CCN(C(=O)C(O)(c4ccccn4)C4CC4)CC3)CC2)cc1Cl (stereo not shown) ?
219 nM

###

Exercise: for every item that follows, state its recorded Emax.
- target.desc: glutathione-S-transferase (GST) tagged LXRbeta LBD (ligand binding domain) (Homo sapiens)
- Construct: purchased Invitrogen pv4658.pps
- measurement.notes: LanthaScreen TR-FRET Liver X Receptor Coactivator Assay, co-activator recruitment to LXRbeta LBD
- Type: biochemical
- settings: efficacy at max dose, in relation to reference dual agonist T0901317; read-out: LXR beta Activity @ max dose (%)
Value expressed in %; do not type the unit.

Missing value: Emax, glutathione-S-transferase (GST) tagged LXRbeta LBD (ligand binding domain) (Homo sapiens), entry Cc1cccc([C@@](O)(C(=O)N2CCC(CC3CCN(c4ccc(C(=O)N(C)C)c(Cl)c4)CC3)CC2)C(F)(F)F)c1 . Fill in?
44

For the record CN(Cc1ccon1)C(=O)c1ccc(N2CCC(OC3CCN(C(=O)[C@](O)(c4ccccc4)C(F)(F)F)CC3)CC2)cc1Cl , what value of Emax is listed for glutathione-S-transferase (GST) tagged LXRbeta LBD (ligand binding domain) (Homo sapiens)?
87

What reported Emax corresponds to CN(C)C(=O)c1ccc(N2CCC(CC3CCN(C(=O)[C@@](O)(c4ccccc4F)C(F)(F)F)CC3)CC2)nc1Cl on glutathione-S-transferase (GST) tagged LXRbeta LBD (ligand binding domain) (Homo sapiens)?
122

So what Emax did CN(C)C(=O)c1ccc(N2CCC(CC3CCN(C(=O)[C@@](O)(c4cccc(Br)c4)C(F)(F)F)CC3)CC2)nc1Cl get with glutathione-S-transferase (GST) tagged LXRbeta LBD (ligand binding domain) (Homo sapiens)?
118

Notebook: pull reported Emax for glutathione-S-transferase (GST) tagged LXRbeta LBD (ligand binding domain) (Homo sapiens), entry CN(C)C(=O)c1ccc(N2CCC(CC3CCN(C(=O)C(N)(c4ccccc4)C(F)(F)C(F)(F)F)CC3)CC2)cc1Cl (centres unmarked)
106

Return Emax measured with glutathione-S-transferase (GST) tagged LXRbeta LBD (ligand binding domain) (Homo sapiens) given this compound: COc1nc(N2CCC(CC3CCN(C(=O)[C@](O)(c4ccccc4)C(F)(F)F)CC3)CC2)ccc1C(=O)N(C)C
80

# returns recorded Emax (system: glutathione-S-transferase (GST) tagged LXRbeta LBD (ligand binding domain) (Homo sapiens)) for CNC(=O)c1ccc(N2CCC(CC3CCN(C(=O)[C@](O)(c4cccc(C)c4)C(F)(F)F)CC3)CC2)nc1Cl
81

Value wanted: Emax (glutathione-S-transferase (GST) tagged LXRbeta LBD (ligand binding domain) (Homo sapiens)) of entry COc1cccc([C@@](O)(C(=O)N2CCC(CC3CCN(c4ccc(C(=O)N(C)C)c(OC)n4)CC3)CC2)C(F)(F)F)c1
61

glutathione-S-transferase (GST) tagged LXRbeta LBD (ligand binding domain) (Homo sapiens) / Emax / CNC(=O)c1ccc(N2CCC(CC3CCN(C(=O)[C@](O)(c4cc(Cl)cc(OC)c4)C(F)(F)F)CC3)CC2)cc1Cl : value?
35

Look up Emax with glutathione-S-transferase (GST) tagged LXRbeta LBD (ligand binding domain) (Homo sapiens) for this compound: CNC(=O)c1ccc(N2CCC(OC3CCN(C(=O)C(O)(c4cccc(F)c4)C(F)(F)F)CC3)CC2)cc1Cl (centres unmarked)
120

Recorded Emax for CN(C)C(=O)c1ccc(N2CCC(CC3CCN(C(=O)[C@](O)(c4cc(F)cc(Cl)c4)C(F)(F)F)CC3)CC2)nc1Cl with glutathione-S-transferase (GST) tagged LXRbeta LBD (ligand binding domain) (Homo sapiens), please?
96

Observed Emax on glutathione-S-transferase (GST) tagged LXRbeta LBD (ligand binding domain) (Homo sapiens) for CN(C)C(=O)c1ccc(N2CCC(CC3CCN(C(=O)[C@](O)(c4cccc(OC5CC5)c4)C(F)(F)F)CC3)CC2)cc1Cl , please.
37

Give glutathione-S-transferase (GST) tagged LXRbeta LBD (ligand binding domain) (Homo sapiens) Emax for Cc1cc(N2CCC(CC3CCN(C(=O)[C@](O)(c4cc(Cl)cc(Cl)c4)C(F)(F)F)CC3)CC2)ccc1C(=O)N(C)C
54

Fill in the recorded Emax for this compound, with glutathione-S-transferase (GST) tagged LXRbeta LBD (ligand binding domain) (Homo sapiens) as test system: CN(C)C(=O)c1ccc(N2CCC(CC3CCCN(C(=O)[C@](O)(c4ccccc4)C(F)(F)F)CC3)CC2)cc1Cl (some centres unmarked)
33

What measured Emax is associated with CC(C)(C)OC(=O)NC1CN(C(=O)c2ccc(N3CCC(CC4CCN(C(=O)[C@](O)(c5cc(Cl)cc(Cl)c5)C(F)(F)F)CC4)CC3)cc2Cl)C1 on glutathione-S-transferase (GST) tagged LXRbeta LBD (ligand binding domain) (Homo sapiens)?
40

Quick check: Emax on glutathione-S-transferase (GST) tagged LXRbeta LBD (ligand binding domain) (Homo sapiens), item CN(C)C(=O)c1ccc(N2CCC(CC3CCN(C(=O)[C@](O)(c4cccc(N(C)C)c4)C(F)(F)F)CC3)CC2)cc1Cl ?
20

Recorded Emax for CN(C)C(=O)c1ccc(N2CCC(CC3CCN(C(=O)[C@](O)(c4cccc(C(F)(F)F)c4)C(F)(F)F)CC3)CC2)cc1 with glutathione-S-transferase (GST) tagged LXRbeta LBD (ligand binding domain) (Homo sapiens), please?
64

Param readout= Emax; system= glutathione-S-transferase (GST) tagged LXRbeta LBD (ligand binding domain) (Homo sapiens); entry= CN(C)C(=O)c1ccc(N2CCC(CC3CCN(C(=O)[C@@](O)(c4cc(F)cc(Cl)c4)C(F)(F)F)CC3)CC2)nc1Cl ; returns value.
125

Please provide the recorded Emax for CN(C)C(=O)c1ccc(N2CCC(CC3CCN(C(=O)C(C)(C)c4ccccc4)CC3)CC2)nc1Cl , tested on glutathione-S-transferase (GST) tagged LXRbeta LBD (ligand binding domain) (Homo sapiens).
68

Quick check: Emax on glutathione-S-transferase (GST) tagged LXRbeta LBD (ligand binding domain) (Homo sapiens), item CN(C)C(=O)c1ccc(N2CCC(CC3CCN(C(=O)C4(c5ccccc5)CCCC4)CC3)CC2)nc1Cl ?
80

Request body: readout Emax, system glutathione-S-transferase (GST) tagged LXRbeta LBD (ligand binding domain) (Homo sapiens), query CN(C)C(=O)c1ccc(N2CCC(CC3CCN(C(=O)C4(c5ccccc5)CC4)CC3)CC2)cc1Cl . Return the value.
48

Fill in the recorded Emax for this compound, with glutathione-S-transferase (GST) tagged LXRbeta LBD (ligand binding domain) (Homo sapiens) as test system: O=C(c1ccc(N2CCC(CC3CCN(C(=O)[C@](O)(c4ccccc4)C(F)(F)F)CC3)CC2)cc1Cl)N1CCC1
72

GET /values?readout=Emax&system=glutathione-S-transferase (GST) tagged LXRbeta LBD (ligand binding domain) (Homo sapiens)&item= Cc1cc(N2CCC(CC3CCN(C(=O)[C@](O)(c4ccccc4)C(F)(F)F)CC3)CC2)ccc1C(=O)N(C)C
69

What measured Emax is associated with COc1cc(F)cc([C@@](O)(C(=O)N2CCC(CC3CCN(c4ccc(C(=O)N(C)C)cc4)CC3)CC2)C(F)(F)F)c1 on glutathione-S-transferase (GST) tagged LXRbeta LBD (ligand binding domain) (Homo sapiens)?
78

# query: Emax | item CN(C)C(=O)c1ccc(N2CCC(CC3(C)CCN(C(=O)[C@](O)(c4cc(Cl)cc(Cl)c4)C(F)(F)F)CC3)CC2)cc1Cl | system: glutathione-S-transferase (GST) tagged LXRbeta LBD (ligand binding domain) (Homo sapiens)
50

// fetch glutathione-S-transferase (GST) tagged LXRbeta LBD (ligand binding domain) (Homo sapiens) Emax for CC(C)c1cccc(C(O)(C(=O)N2CCC(CC3CCN(c4ccc(C(=O)N(C)C)c(Cl)n4)CC3)CC2)C(F)(F)F)c1 (centres unmarked)
54
